Each entry below carries its reported half-life.
Method Description: Half life in 10 mM phosphate buffer at pH 7.4 by HPLC method
Type: physicochemical
Value Kind: half-life

* CCC(CC)O[C@@H]1C=C(C(=O)O)C[C@H](N/C(N)=N/C(=O)[C@@H](C)c2ccc3cc(OC)ccc3c2)[C@H]1NC(C)=O | 69.7 h
* CCCCCCCC(=O)/N=C(\N)N[C@H]1C=C(C(=O)O)O[C@@H]([C@H](O)[C@H](O)CO)[C@@H]1NC(C)=O | 56.8 h
* COc1ccc2cc([C@H](C)C(=O)/N=C(\N)N[C@H]3C=C(C(=O)O)O[C@@H]([C@H](O)[C@H](O)CO)[C@@H]3NC(C)=O)ccc2c1 | 67.2 h
